Source: ChEMBL document CHEMBL3792336

system: MCF7; assay: Antiproliferative activity against human MCF7 cells at 30 uM after 72 hrs by MTT assay; type: functional; conditions: MCF7, 72 h
quantityMeasured: inhibition at 30 µM
Don't forget the unit after the value.

Recorded results for 3 compounds are shown here.
structureString: Cc1cccc(NC(=O)Nc2ccc(OC(=O)CCCO[N+](=O)[O-])c(C(=O)Oc3ccc(-c4cc(=S)ss4)cc3)c2)c1
reportedMeasurement: 13.9%
--
structureString: O=C(Nc1cccc(C(F)(F)F)c1)Nc1ccc(OC(=O)CCCO[N+](=O)[O-])c(C(=O)Oc2ccc(-c3cc(=S)ss3)cc2)c1
reportedMeasurement: -6.78%
--
structureString: Nc1ccc(OCCCOc2no[n+]([O-])c2S(=O)(=O)c2ccccc2)c(C(=O)Oc2ccc(-c3cc(=S)ss3)cc2)c1
reportedMeasurement: 92.1%

Let's switch to this compound now.
Q) Give its inhibition at 30 µM value. Item: CC(C)(C)OC(=O)Nc1ccc(OCCOc2no[n+]([O-])c2S(=O)(=O)c2ccccc2)c(C(=O)Oc2ccc(-c3cc(=S)ss3)cc2)c1
A) 83.1%
